molecules and their reported Ki
# TARGET OF ASSAY: hCRTH2 (Homo sapiens, UniProt Q9Y5Y4)
# Construct: expressed in transfected cells; host or cells: HEK (human embryonic kidney) cells expressing hCRTH2; membrane preparation
# Sequence (Q9Y5Y4 1-395): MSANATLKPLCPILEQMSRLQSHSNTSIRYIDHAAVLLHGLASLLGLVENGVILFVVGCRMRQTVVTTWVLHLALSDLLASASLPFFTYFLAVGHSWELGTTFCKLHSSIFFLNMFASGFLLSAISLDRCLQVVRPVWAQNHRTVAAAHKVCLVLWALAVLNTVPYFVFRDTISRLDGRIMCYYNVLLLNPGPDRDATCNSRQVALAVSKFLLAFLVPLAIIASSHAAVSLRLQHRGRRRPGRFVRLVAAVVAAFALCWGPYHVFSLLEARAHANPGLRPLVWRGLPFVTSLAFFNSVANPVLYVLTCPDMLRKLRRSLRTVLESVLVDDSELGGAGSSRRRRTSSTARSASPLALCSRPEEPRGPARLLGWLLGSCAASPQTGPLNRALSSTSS
# METHOD NOTES: Radioligand binding assay ([3H]PGD2 competition, HEK-hCRTH2 membranes)
# EXPERIMENTAL PARAMETERS: [3H]PGD2 competition, Table B

Worked examples, 5 molecules total:
O=C(c1ccc2nc(-c3ccccc3)c(CCCC(F)(F)C(=O)O)nc2c1)N1CCN(c2ccccc2)CC1    20.1 to 200 nM
O=C(O)CCCCc1nc2cc(C(=O)N3CCC(n4c(=O)[nH]c5ccccc54)CC3)ccc2nc1-c1ccc(F)cc1    20.1 to 200 nM
CN(C(=O)c1ccc2nc(-c3ccccc3)c(CCCCC(=O)O)nc2c1)[C@@H]1CCCc2cc(F)ccc21    2.1 to 20 nM
O=C(O)CCCCc1nc2cc(C(=O)N3CCO[C@@H](c4ccc(F)cc4)C3)ccc2nc1-c1ccc(Cl)cc1    20.1 to 200 nM
C[C@@H](NC(=O)c1ccc2nc(-c3ccc(Cl)cc3)c(CCCCC(=O)O)nc2c1)c1cc(F)cc(F)c1    0.1 to 2 nM

Problem: Given the entry `CC(C)[C@H](NC(=O)c1ccc2nc(-c3ccc(Cl)cc3)c(CCCCC(=O)O)nc2c1)c1ccc(F)cc1` , report its measured Ki.
Solution: 2.1 to 20 nM

Problem: Query `O=C(O)CCCCc1nc2cc(C(=O)N3CCC(N4CCCCC4)CC3)ccc2nc1-c1ccc(Cl)cc1` next
Solution: 20.1 to 200 nM
